tested on: Matricaria inodora (MATIN); experiment: Post-emergence herbicidal action, greenhouse pot trial; format: in vivo; conditions: 320 g/ha, visual rating after about 3 weeks
Test readout: Post-emergence effect at 320 g/ha against MATIN in % (%)

1) COC(=O)CCOC(=O)C(Oc1nn(-c2ncccc2F)c(-c2ccc(F)nc2)c1Br)SC (single isomer, unassigned) [Example I-23]
90
2) COC(=O)C(Oc1nn(-c2ncccc2F)c(-c2ccc(F)nc2)c1Br)SC (single isomer, unassigned)
80
3) COC(=O)C(C)COC(=O)C(Oc1nn(-c2ccccc2F)c(-c2ccc(F)nc2)c1I)SC (centres unmarked)
80
4) COC(=O)CCOC(=O)C(Oc1nn(-c2ncccc2F)c(-c2cncc(F)c2)c1Br)SC (centres unmarked)
90
5) COC(=O)CCOC(=O)C(Oc1nn(-c2ncccc2F)c(-c2cncc(F)c2)c1C1CC1)SC (centres unmarked)
90

---

Each item that follows carries a reported pest or weed control at 320 g/ha.
test system: Echinochloa crus-galli (ECHCG); experiment: Post-emergence herbicidal action, greenhouse pot trial; format: in vivo; conditions: Echinochloa crus-galli, 504 h, 320 g/ha, visual rating after about 3 weeks, read-out: Post-emergence effect at 320 g/ha against ECHCG in %
Test readout: pest or weed control at 320 g/ha (%)

1) COC(=O)C(Oc1nn(-c2ncccc2F)c(-c2ccc(F)nc2)c1Cl)SC (stereo not drawn) [Example I-56]
90
2) CCOC(=O)C(Oc1nn(-c2ncccc2F)c(-c2ccc(F)nc2)c1Br)SC (stereo not drawn) [Example I-13]
90
3) CCOC(=O)C(Oc1nn(-c2ncccc2F)c(-c2ccc(F)nc2)c1Cl)SC (stereo not drawn) [Example I-19]
100
4) CCOC(=O)C(Oc1nn(-c2ncccc2F)c(-c2ccccc2)c1Br)SC (stereo not drawn) [Example I-11]
80
5) CSC(Oc1nn(-c2ncccc2F)c(-c2ccc(F)nc2)c1Br)C(=O)O (stereo not drawn) [Example I-34]
90
6) COC(=O)C(Oc1nn(-c2ccccc2F)c(-c2ccc(F)nc2)c1I)SC (stereo not drawn) [Example I-52]
90
7) COC(=O)C(Oc1nn(-c2ccccc2F)c(-c2ccc(F)nc2)c1Br)SC (stereo not drawn) [Example I-10]
90
8) CCOC(=O)C(Oc1nn(-c2ncccc2F)c(-c2cncc(F)c2)c1C1CC1)SC (stereo not drawn) [Example I-41]
90
9) CCOC(=O)C(Oc1nn(-c2ncccc2F)c(-c2cncc(F)c2)c1Br)SC (stereo not drawn) [Example I-39]
90
10) CSC(Oc1nn(-c2ccccc2F)c(-c2ccc(F)nc2)c1I)C(=O)O (stereo not drawn) [Example I-21]
90
11) CSC(Oc1nn(-c2cc(F)ccc2F)c(-c2cncc(F)c2)c1Br)C(=O)O (stereo not drawn) [Example I-06]
90
12) COC(=O)C(Oc1nn(-c2ncccc2F)c(-c2ccc(F)nc2)c1Br)SC (single isomer, unassigned) [Example I-26]
90
13) CCOC(=O)C(Oc1nn(-c2ccccc2)c(-c2ccc(F)nc2)c1Br)SC (stereo not drawn) [Example I-04]
80
14) COC(=O)C(Oc1nn(-c2ncccc2F)c(-c2cncc(F)c2)c1C1CC1)SC (stereo not drawn) [Example I-66]
90
15) COC(=O)C(Oc1nn(-c2cc(F)ccc2F)c(-c2cncc(F)c2)c1C1CC1)SC (stereo not drawn) [Example I-08]
80
16) CSC(Oc1nn(-c2ncccc2F)c(-c2ccc(F)nc2)c1Cl)C(=O)O (stereo not drawn) [Example I-31]
90
17) COC(=O)C(Oc1nn(-c2ncccc2F)c(-c2ccc(F)nc2)c1C1CC1)SC (stereo not drawn) [Example I-59]
90
18) CSC(Oc1nn(-c2ncccc2F)c(-c2cncc(F)c2)c1C1CC1)C(=O)O (stereo not drawn) [Example I-44]
90
